In this section we review reported binding affinity ratio (IC50 of standard peptide / IC50 of test peptide) values for a set of binders.
system_name: HLA-B*0702 (human)
test_description: competition with 125I-labelled standard peptide on purified HLA-B*0702, gel filtration; standard 1075.23 [..], […]
The answer should be a number; do not append a unit.

Past entries and their recorded results:
[[record]]
binder = "TPKKLQCVDL (modifications not checked) [… (PSA, position 163, 10 amino acids)]"
reported_result = 0.0006

[[record]]
binder = "PPPPGYENV (modifications not checked) [… (PSM, position 146, 9 amino acids)]"
reported_result = 0.0001

[[record]]
binder = "SPQGMPEGDL (modifications not checked) [… (PSM, position 165, 10 amino acids)]"
reported_result = 0.0002

[[record]]
binder = "SPSCPLERFA (modifications not checked) [… (PSA as printed, position 348, 10 amino acids)]"
reported_result = 0.0002

[[record]]
binder = "TPKHNMKAFL (modifications not checked) [… (PSM, position 53, 10 amino acids)]"
reported_result = 0.02


[Q] Entry SPEFSGMPRI (modifications not checked) [… (PSM, position 503, 10 amino acids)] needs its binding affinity ratio (IC50 of standard peptide / IC50 of test peptide) filled in; supply it.
[A] 0.002

[Q] Please indicate binding affinity ratio (IC50 of standard peptide / IC50 of test peptide) recorded for PPGYENVSDI (modifications not checked) [… (PSM, position 148, 10 amino acids)]
[A] 0.0001

[Q] Supply recorded binding affinity ratio (IC50 of standard peptide / IC50 of test peptide) for TPGYPANEYA (modifications not checked) [… (PSM, position 269, 10 amino acids)] here.
[A] 0.0001
